# experimental_protocol: Change in normalised Cmax in rat at 10 mg/kg, po measured upto 72 hrs by LC-MS/MS analysis
# Format: ADME, organism-based
# experimental_parameters: in vivo
attribute_measured: Activity (%)
Just the number in %, nothing appended.

Cl.Cn1cc(C[C@@H](NC(=O)[C@@H](N)CCCCN)C(=O)O)c2ccccc21 -3

Problem: Note Activity for the compound shown: `Cl.Cn1cc(C[C@@H](NC(=O)[C@H](N)Cc2c[nH]c3ccccc23)C(=O)O)c2ccccc21`
Solution: -82

Problem: Note Activity for the compound shown: `CC(C)C[C@H](N)C(=O)N[C@H](Cc1cn(C)c2ccccc12)C(=O)O.Cl`
Solution: 41

Problem: Note Activity for the compound shown: `Cl.Cn1cc(C[C@@H](N)C(=O)OCCC2CCOCC2)c2ccccc21`
Solution: -14

Problem: Note Activity for the compound shown: `CCOC(=O)[C@@H](Cc1cn(C)c2ccccc12)NC(=O)[C@@H](N)CCC(N)=O.Cl`
Solution: 41

Problem: Note Activity for the compound shown: `CC[C@H](C)[C@H](N)C(=O)N[C@H](Cc1cn(C)c2ccccc12)C(=O)O.Cl`
Solution: -28

====

Activity values, listed per item
# experimental_protocol: Change in normalised AUCinfinity in rat at 10 mg/kg, po measured upto 72 hrs by LC-MS/MS analysis
# Format: ADME, organism-based
# experimental_parameters: in vivo
Where a SMILES comes first, the peptide text is derived from it. [ ]: non-standard residue; d: D form. dTrp(1-Me) = Cn1cc(C[C@@H](N)C(=O)O)c2ccccc21
Just the number in %, nothing appended.

Reference set, count: 3
compound	reported_result
Cl.Cn1cc(C[C@@H](N)C(=O)N[C@H](Cc2cn(C)c3ccccc23)C(=O)O)c2ccccc21	-48
Cl.Cn1cc(C[C@@H](N)C(=O)OCC2CCNCC2)c2ccccc21	75
Cl.Cn1cc(C[C@@H](NC(=O)[C@@H](N)Cc2ccccc2)C(=O)O)c2ccccc21	-16

Problem: Note Activity for the compound shown: Cl.Cn1cc(C[C@@H](NC(=O)CN)C(=O)O)c2ccccc21 (H-Gly-[dTrp(1-Me)]-OH)
Solution: 18

Problem: Note Activity for the compound shown: `Cl.Cn1cc(C[C@@H](NC(=O)[C@@H](N)CCC(N)=O)C(=O)O)c2ccccc21`
Solution: -27

Problem: Note Activity for the compound shown: `CCOC(=O)[C@@H](Cc1cn(C)c2ccccc12)NC(=O)[C@@H](N)Cc1ccccc1.Cl`
Solution: -35

====

remaining at 1.5 h, 5 µM values, listed per item
# experimental_protocol: Chemical stability of compound in simulated gastric fluid assessed as compound remaining at 5 uM measured after 1.5 hrs by LC-MS/MS analysis
# Assay type: ADME, physicochemical
# experimental_parameters: read-out: Stabilty
Where a SMILES comes first, the peptide text is derived from it. [ ]: non-standard residue; d: D form. dTrp(1-Me) = Cn1cc(C[C@@H](N)C(=O)O)c2ccccc21
Write the numeric value and append its unit.

compound	reported_result
Cl.Cn1cc(C[C@@H](NC(=O)[C@@H](N)Cc2c[nH]c3ccccc23)C(=O)O)c2ccccc21	81%
CC[C@H](C)[C@H](N)C(=O)N[C@H](Cc1cn(C)c2ccccc12)C(=O)O.Cl	81%

Let us examine a further case.
Problem: Note remaining at 1.5 h, 5 µM for the compound shown: Cl.Cn1cc(C[C@@H](NC(=O)CN)C(=O)O)c2ccccc21 (H-Gly-[dTrp(1-Me)]-OH)
Solution: 80%

====

# experimental_protocol: Stability in rat plasma assessed as parent compound remaining measured after 2 hrs by LC-MS/MS analysis
# Assay type: ADME, cell-free
# experimental_parameters: read-out: Stabilty
Lab note: cut-off is 20%. Strictly less in remaining at 2 h is Met. Exactly 20% or more is Not met.

Problem: Input `Cl.Cn1cc(C[C@@H](NC(=O)[C@H](N)Cc2c[nH]c3ccccc23)C(=O)O)c2ccccc21` ; condition: remaining at 2 h strictly below 20%. Does it hold?
Solution: Not met

Problem: Input `Cn1cc(C[C@@H](NC(=O)OCC(C)(C)C)C(=O)O)c2ccccc21` ; condition: remaining at 2 h strictly below 20%. Does it hold?
Solution: Not met

Problem: Input `CC(C)OC(=O)[C@H](N)Cc1cn(C)c2ccccc12.Cl` ; condition: remaining at 2 h strictly below 20%. Does it hold?
Solution: Met

Problem: Input `Cl.Cn1cc(C[C@@H](N)C(=O)OCCC2CCNCC2)c2ccccc21` ; condition: remaining at 2 h strictly below 20%. Does it hold?
Solution: Met

Problem: Input `CN(C)CCOC(=O)[C@H](N)Cc1cn(C)c2ccccc12.Cl` ; condition: remaining at 2 h strictly below 20%. Does it hold?
Solution: Met

Problem: Input `Cl.Cn1cc(C[C@@H](NC(=O)[C@@H](N)CCCCN)C(=O)O)c2ccccc21` ; condition: remaining at 2 h strictly below 20%. Does it hold?
Solution: Not met

Problem: Input `CCOC(=O)N[C@H](Cc1cn(C)c2ccccc12)C(=O)O` ; condition: remaining at 2 h strictly below 20%. Does it hold?
Solution: Not met

Problem: Input `CC(C)[C@H](N)C(=O)N[C@H](Cc1cn(C)c2ccccc12)C(=O)O.Cl` ; condition: remaining at 2 h strictly below 20%. Does it hold?
Solution: Met

Problem: Input `CCOC(=O)[C@@H](Cc1cn(C)c2ccccc12)NC(=O)[C@@H](N)CC(C)C.Cl` ; condition: remaining at 2 h strictly below 20%. Does it hold?
Solution: Met

====

# experimental_protocol: Chemical stability of compound in simulated gastric fluid assessed as compound remaining at 5 uM measured after 24 hrs by LC-MS/MS analysis
# Assay type: ADME, physicochemical
# experimental_parameters: read-out: Stabilty
Lab note: cut-off is 80%. Strictly less in remaining at 24 h, 5 µM is 1.0. Exactly 80% or more is 0.0.

// known answers, use as guide
compound	assigned_label
Cl.Cn1cc(C[C@@H](N)C(=O)OCCC2CCNCC2)c2ccccc21	0.0
CC[C@H](C)[C@H](N)C(=O)N[C@H](Cc1cn(C)c2ccccc12)C(=O)O.Cl	1.0
CN(C)CCOC(=O)[C@H](N)Cc1cn(C)c2ccccc12.Cl	1.0
CCOC(=O)[C@H](N)Cc1cn(C)c2ccccc12.Cl	0.0
CC(C)[C@H](N)C(=O)N[C@H](Cc1cn(C)c2ccccc12)C(=O)O.Cl	1.0

Problem: Input `Cl.Cn1cc(C[C@@H](NC(=O)[C@@H](N)CCCCN)C(=O)O)c2ccccc21` ; condition: remaining at 24 h, 5 µM strictly below 80%. Does it hold?
Solution: 0.0

Problem: Input `Cl.Cn1cc(C[C@@H](NC(=O)[C@H](N)Cc2c[nH]c3ccccc23)C(=O)O)c2ccccc21` ; condition: remaining at 24 h, 5 µM strictly below 80%. Does it hold?
Solution: 1.0

Problem: Input `C[C@H](N)C(=O)N[C@H](Cc1cn(C)c2ccccc12)C(=O)O.Cl` ; condition: remaining at 24 h, 5 µM strictly below 80%. Does it hold?
Solution: 1.0

Problem: Input `CCOC(=O)[C@@H](Cc1cn(C)c2ccccc12)NC(=O)[C@@H](N)Cc1ccccc1.Cl` ; condition: remaining at 24 h, 5 µM strictly below 80%. Does it hold?
Solution: 0.0

Problem: Input `CCOC(=O)[C@@H](Cc1cn(C)c2ccccc12)NC(=O)[C@@H](N)[C@@H](C)CC.Cl` ; condition: remaining at 24 h, 5 µM strictly below 80%. Does it hold?
Solution: 0.0

Problem: Input CC(C)C(NC(=O)[C@H](N)Cc1cn(C)c2ccccc12)C(=O)O.Cl (single isomer, unassigned) ; condition: remaining at 24 h, 5 µM strictly below 80%. Does it hold?
Solution: 1.0

Problem: Input `CC(C)C[C@H](N)C(=O)N[C@H](Cc1cn(C)c2ccccc12)C(=O)O.Cl` ; condition: remaining at 24 h, 5 µM strictly below 80%. Does it hold?
Solution: 0.0

Problem: Input `Cl.Cn1cc(C[C@@H](N)C(=O)OCC2CCNCC2)c2ccccc21` ; condition: remaining at 24 h, 5 µM strictly below 80%. Does it hold?
Solution: 1.0

====

# experimental_protocol: Chemical stability of compound in 0.1 N aqueous HCl buffer assessed as compound remaining at pH 1 at 5 uM measured after 24 hrs by LC-MS/MS analysis
# Type: physicochemical
# experimental_parameters: pH 1, 24 h
Where a SMILES comes first, the peptide text is derived from it. [ ]: non-standard residue; d: D form. dTrp(1-Me) = Cn1cc(C[C@@H](N)C(=O)O)c2ccccc21
Stabilty values, listed per item
Just the number in %, nothing appended.

Reference set, count: 5
compound	endpoint_unit	reported_result
Cl.Cn1cc(C[C@@H](N)C(=O)OCC(N)C(=O)O)c2ccccc21 (single isomer, unassigned)	%	70
Cl.Cn1cc(C[C@@H](N)C(=O)OCC2CCNCC2)c2ccccc21	%	23
Cl.Cn1cc(C[C@@H](NC(=O)CN)C(=O)O)c2ccccc21 (H-Gly-[dTrp(1-Me)]-OH)	%	99
Cl.Cn1cc(C[C@@H](NC(=O)[C@@H](N)Cc2ccccc2)C(=O)O)c2ccccc21	%	92
Cl.Cn1cc(C[C@@H](N)C(=O)OCCC2CCOCC2)c2ccccc21	%	76

Problem: Note Stabilty for the compound shown: `CCOC(=O)[C@@H](Cc1cn(C)c2ccccc12)NC(=O)[C@@H](N)[C@@H](C)CC.Cl`
Solution: 97

Problem: Note Stabilty for the compound shown: `Cl.Cn1cc(C[C@@H](NC(=O)[C@@H](N)CCC(=O)O)C(=O)O)c2ccccc21`
Solution: 91

Problem: Note Stabilty for the compound shown: `Cl.Cn1cc(C[C@@H](N)C(=O)N[C@H](Cc2cn(C)c3ccccc23)C(=O)O)c2ccccc21`
Solution: 91
